Attribution: ChEMBL document CHEMBL1201862

In this section we review reported GI50 values for a set of molecules.
Tested on: MCF7
assay comment: NCI tumour cell line growth inhibition, 48 h
Calls of active or inactive are those of the source. No stated cut-off is given here; in the data, active = GI50 up to about 1.1 µM and inactive = higher.

See these solved cases before continuing.
NC(=S)N/N=C(\Cc1nc2ccc(Cl)cc2nc1O)C(=O)Nc1ccc(Cl)cc1 :: > 100 µM (inactive)
CCOC(=O)/C(C#N)=C/c1ccc(CO)o1 :: > 100 µM (inactive)
O=C(NCCO)Nc1c(C(F)(F)F)cc(-c2ccccc2)[nH]c1=O :: > 100 µM (inactive)
NC1CSc2ccccc2NC1=O (configuration not stated) :: > 100 µM (inactive)
CN(/N=C/c1cccs1)c1ccc([N+](=O)[O-])cc1[N+](=O)[O-] :: > 100 µM (inactive)

GI50 of CC(=O)N(CCc1ccccc1)C(C)(C#N)c1ccccc1 (configuration not stated) on MCF7?
> 100 µM (inactive)

Give MCF7 GI50 for CCOC(=O)C1(C#N)OC(=O)c2cnccc21 (configuration not stated)
> 100 µM (inactive)

For the record `COc1c(-c2nc3ccc(N4CCN(C)CC4)cc3[nH]2)cc(OC)c2[nH]c(COC(C)=O)nc12` , what value of GI50 is listed for MCF7?
38.7 µM (inactive)

What is its GI50 for MCF7? Entry: COc1c(OC)c(OC)c2c(c1OC)c(=O)c1ccccc1n2C [MELICOPICINE]
> 100 µM (inactive)

----------
System: RPMI-8226
assay comment: NCI tumour cell line growth inhibition, 48 h
Activity calls are given as the source filed them. No stated cut-off is given here; in the data, active = GI50 up to about 1.1 µM and inactive = higher.
Hi there, use one of these labels in your reply, thanks! active, inactive

Recorded test outcome, item `NCCCCNOCCCN`
inactive

For `Cc1cc(C)c(-n2[nH]c(=O)n(C)c2=O)c(C)c1` , what call appears in the results of this test?
inactive

Look up the recorded call for `Cc1cc2[nH]c3c(C#N)c(-c4ccccc4)c(/N=N/c4cccc(C(F)(F)F)c4)c(=O)n3c2cc1C` in this test.
inactive

----------
Tested on: SNB-78
assay comment: NCI tumour cell line growth inhibition, 48 h
Calls of active or inactive are those of the source. No stated cut-off is given here; in the data, active = GI50 up to about 1.1 µM and inactive = higher.
The categories you may choose from are active, inactive

The following compounds have reported results that may help.
O=C1/C(=C/c2ccc(O)cc2)CCC1CNc1ccc(Cl)cc1 (configuration not stated) :: inactive
CCO[C@@H]1OC(=O)[C@](C)(C(C)=O)[C@@H]1C :: inactive
Nc1nnc(O)c2c1c(I)cn2C1OC(CO)C(O)C1O (configuration not stated) :: inactive
N#CC(NNC(=O)c1ccccc1O)c1c(O)ccc2ccccc12 (configuration not stated) :: inactive
COC(=O)[C@@H]1[C@H](O)[C@H](C)[C@H](O)[C@@](C)(O)/C=C\C=C(\C)C(=O)Nc2c(C)c(OC(C)=O)c3c(c2O)C(=O)C(C)=C2OCOC(=C23)/C(C)=C/[C@@](C)(O)[C@H](O)[C@@H](C)[C@H]1OC(C)=O :: inactive
CS(=O)(=O)OC1CCC2(C#N)CCC1C2=O (configuration not stated) :: inactive

Lab log entry: `CCOC(=N)CC(=O)Nc1ccccc1` — outcome as called in the assay?
inactive

For NNC(=S)N/N=C(\CC1OC(=O)c2ccccc21)c1ccccc1O (configuration not stated) , what call appears in the results of this test?
inactive

----------
Known GI50 of a selection of molecules
System: MDA-MB-435
assay comment: NCI tumour cell line growth inhibition, 48 h
Calls of active or inactive are those of the source. Cut-off read from the data, not from the text of the source: active = GI50 up to about 1.1 µM and inactive = higher.

Example results:
CC1=C2C(=O)OCC23C=COC3(C)O1 (stereo not given) :: 20.7 µM (inactive)
O=C(NCc1cccs1)OC1CC2CCC1C2 (stereo not given) :: > 100 µM (inactive)
O=[N+]([O-])c1ccc(S[C@@H]2[C@H]3c4c(-c5ccccc5)[nH]c(-c5ccccc5)c4[C@@H]2C[C@H]3Cl)cc1 :: 3.58 µM (inactive)
O=C(O)c1ccccc1/N=N/c1c(O)c(S(=O)(=O)O)cc2cc(S(=O)(=O)O)ccc12 :: > 100 µM (inactive)
COC(=O)C1=C(O)C(C(=O)OC)[C@@]2(O)[C@@H](C(=O)OC)[C@H](C)C[C@@H]1[C@@H]2C(=O)OC (stereo not given in full) :: 14.7 µM (inactive)

Give its GI50 value. Item: `CC(C)=CCC[C@@H](C)C1=C(O)C(=O)C(C)=C(N)C1=O`
41 µM (inactive)

Look up GI50 for this molecule: `CCCCCC(=O)Nc1[nH]cnc1C(N)=O`
> 100 µM (inactive)

Quick check: GI50 of `Cc1nc2c(C)c3c([nH]c4ccc(Cl)cc43)c(C)c2c(O)c1C` ?
6.34 µM (inactive)

Dear colleague, I am looking for the recorded GI50 of the following molecule: COc1cc(C2OC[C@@H]3C(=O)OC[C@H]23)cc(O)c1OC (stereo not given in full)
> 100 µM (inactive)

Given the molecule `COc1ccc(C2=Nn3c(nnc3-c3ccccc3)S/C2=C\c2ccc(-c3ccc([N+](=O)[O-])cc3)o2)cc1` , what is its reported GI50?
5.83 µM (inactive)

----------
Tested on: T47D
assay comment: NCI tumour cell line growth inhibition, 48 h
Activity calls are given as the source filed them. No stated cut-off is given here; in the data, active = GI50 up to about 1.1 µM and inactive = higher.
In this exercise, the only acceptable responses are yes (1) = active, no (0) = inactive

Answered examples (6):
COC(=O)/C=C1/OC(c2ccccc2)=C(Cl)C1=O :: no (0)
O=C(Nc1ccc2oc(=O)c(C(=O)O)cc2c1)Oc1ccccc1 :: no (0)
COc1ccc2cc(CNCCOCCOCCNCc3ccc4cc(OC)ccc4c3)ccc2c1 :: yes (1)
NC1CSc2ccccc2NC1=O (configuration not stated) :: no (0)
CCOC(=O)/C(C#N)=C/c1ccc(CO)o1 :: no (0)
Cc1ccc2nc(-c3ccccc3)c(N=O)n2c1 :: no (0)

Then there is this compound:
// outcome(item) with item = `COC(C)(C)[C@@H]1CCCN1C1=C(C)C(=O)OC1`
no (0)

----------
Test system: M14
assay comment: NCI tumour cell line growth inhibition, 48 h
The source made the active and inactive calls. Rule as the data show it: active = GI50 up to about 1.1 µM and inactive = higher.
Respond using exactly one of the listed classes: 1 (active), 0 (inactive)

Previously resolved entries follow.
C[n+]1cc2cc(O)c(O)cc2c2ccc3cc(O)c(O)cc3c21.c1ccncc1 :: 0
CCOC(=O)/C(C#N)=C/c1ccc(CO)o1 :: 0
COc1ccc(NCc2cc(OC)cc(OC)c2)cc1 :: 0

Could you please tell me the result logged for CC(=O)OCC1OC(n2c3c(cc(C#N)c2=S)CCC3)C(OC(C)=O)C(OC(C)=O)C1OC(C)=O (stereo not given) in this assay?
0

Any idea what this test logged for `CCCCCCCCOC(=O)c1cc([N+](=O)[O-])c(Sc2[nH]cnc3ncnc2-3)c([N+](=O)[O-])c1` ?
1

// param item: Clc1c(Cl)c(Cl)c2c(nnn2C2CCCO2)c1Cl (stereo not given) ; yields the recorded call
0

What did the test return for COc1cc(S(=O)(=O)Nc2ccc(-c3csc(N4C(=O)CSC4c4cccs4)n3)cc2)ccc1Cl (stereo not given) ?
0

Field: outcome | Entry: COc1ccc2c(c1OC)C(C=C(c1ccccc1)c1ccccc1)CN(C)C2 (stereo not given)
0

Recorded test outcome, item `CN(/N=C/c1ccc(Cl)cc1)C1=NCCCCN1`
0

// outcome(item) with item = O=C1CC2CC3OC3[C@H]3c4cc5c(cc4C(=O)N1C23)OCO5 (stereo not given in full)
0

----------
Tested on: CCRF-CEM
assay comment: NCI tumour cell line growth inhibition, 48 h
The source made the active and inactive calls. Cut-off read from the data, not from the text of the source: active = GI50 up to about 1.1 µM and inactive = higher.
Valid outcomes are listed here; reply with one: YES = active, NO = inactive

Some solved entries appear below for comparison.
CC(=O)OCC(=O)[C@@]12OC(C)(C)O[C@@H]1C[C@H]1[C@@H]3CC(C=O)=C4C=C(OCCCl)CC[C@]4(C)[C@@]3(F)[C@@H](O)C[C@@]12C :: YES
O=C(Nc1ccccc1F)c1cc2ccc(O)cc2o/c1=N\c1cccc(F)c1 :: NO
CN(/N=C/c1ccc(Cl)cc1)C1=NCCCCN1 :: NO
COc1c(OC)c(OC)c2c(=O)c(OC)c(-c3ccc4c(c3)OCO4)oc2c1OC :: NO
C=C1CC[C@@H]2C(C)(C)C(O)CCC2(C)C1COc1ccc2ccc(=O)oc2c1 (stereo partly specified) :: NO
O=C(O)C1=C(O)C(C(=O)O)C23CCCCCCCCCCC12C(C(=O)O)C(O)=C3C(=O)O (stereo unspecified) :: NO
NC(=O)NCc1c(C(N)=O)ncn1Cc1ccccc1 :: NO
COc1cccc2c(N)c3cccc(C(=O)NCCN(C)C)c3nc12 :: YES

Please state the recorded outcome for this compound: `CC(CCN)(CCN)[N+](=O)[O-]`
NO

Status in this test for O=NC1C(Cl)C2CC1C1C(Br)C(Br)CC21 (stereo unspecified) ?
NO

Each compound tested received a call. Report the one for `O=C(c1ccco1)N(C(=S)OC12CC3CC(CC(C3)C1)C2)c1ccccc1` .
NO
